What follows is literature data on log10 Ki for 5-hydroxytryptamine receptor 1F (Homo sapiens, UniProt P30939).
Target: 5-hydroxytryptamine receptor 1F (Homo sapiens, UniProt P30939)
Sequence (P30939 whole entry): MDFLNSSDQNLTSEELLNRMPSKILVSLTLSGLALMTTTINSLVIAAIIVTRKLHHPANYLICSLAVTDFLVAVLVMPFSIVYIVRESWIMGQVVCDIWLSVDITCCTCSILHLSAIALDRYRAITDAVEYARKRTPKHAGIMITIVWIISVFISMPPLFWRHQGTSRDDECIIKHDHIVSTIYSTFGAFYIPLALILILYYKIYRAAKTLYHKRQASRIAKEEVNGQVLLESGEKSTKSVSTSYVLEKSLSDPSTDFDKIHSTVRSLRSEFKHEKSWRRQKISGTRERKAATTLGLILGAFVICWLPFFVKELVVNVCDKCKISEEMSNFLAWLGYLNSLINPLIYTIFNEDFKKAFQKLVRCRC
Give log10 of Ki, with Ki taken in nM.

response.value for `CN1CCC(c2c[nH]c3ccc(NC(=O)C4CCCC4)nc23)CC1` (field: log10 Ki) = 1.04

response.value for `CC(=O)Nc1ccc2[nH]cc(C3CCNCC3)c2n1` (field: log10 Ki) = 1.65

More entries:
response.value for `CN1CCC(c2coc3ccc(NC(=O)c4c(F)cc(F)cc4F)nc23)CC1` (field: log10 Ki) = 0.36

response.value for `Cc1cccc(C(=O)Nc2ccc3[nH]cc(C4CCN(C)CC4)c3n2)c1` (field: log10 Ki) = 0.76

response.value for `CNC(=O)Nc1ccc2[nH]cc(C3CCN(C)CC3)c2n1` (field: log10 Ki) = 0.40

response.value for `CC(=O)Nc1ccc2[nH]cc(C3CCN(C)CC3)c2c1` (field: log10 Ki) = 0.99

response.value for `CCN1CCC(c2c[nH]c3ccc(NC(=O)c4ccc(F)cc4)nc23)CC1` (field: log10 Ki) = 2.23

response.value for `CC(=O)Nc1ccc2[nH]cc(C3CCN(C)CC3)c2n1` (field: log10 Ki) = 0.70

response.value for `CN1CCC(c2c[nH]c3ccc(NC(=O)Nc4ccc(F)cc4)nc23)CC1` (field: log10 Ki) = 1.04

response.value for `CN1CCC(c2c[nH]c3ccc(NC(=O)C4CC4)nc23)CC1` (field: log10 Ki) = 0.99

response.value for `CC(=O)Nc1ncc2[nH]cc(C3CCN(C)CC3)c2n1` (field: log10 Ki) = 2.34

response.value for `CN1CCC(C(=O)c2cc(NC(=O)c3ccc(F)cc3)ccc2F)CC1` (field: log10 Ki) = 3.11

response.value for `CCCC(=O)Nc1ccc2[nH]cc(C3CCN(C)CC3)c2n1` (field: log10 Ki) = 0.84

response.value for `CCCCCC(=O)Nc1ccc2[nH]cc(C3CCN(C)CC3)c2n1` (field: log10 Ki) = 1.11

response.value for `CN1CCC(c2c[nH]c3ccc(NC(=O)c4ccccc4[N+](=O)[O-])nc23)CC1` (field: log10 Ki) = 1.28

response.value for `O=C(N[C@H]1CCN(Cc2ccc(OC3CCNCC3)c(Br)c2)C1)c1ccc(Cl)c(Cl)c1` (field: log10 Ki) = 3.86
